# Target Of Assay: human GPR120 (Homo sapiens (Human), UniProt Q5NUL3)
# Sequence (Q5NUL3 whole entry): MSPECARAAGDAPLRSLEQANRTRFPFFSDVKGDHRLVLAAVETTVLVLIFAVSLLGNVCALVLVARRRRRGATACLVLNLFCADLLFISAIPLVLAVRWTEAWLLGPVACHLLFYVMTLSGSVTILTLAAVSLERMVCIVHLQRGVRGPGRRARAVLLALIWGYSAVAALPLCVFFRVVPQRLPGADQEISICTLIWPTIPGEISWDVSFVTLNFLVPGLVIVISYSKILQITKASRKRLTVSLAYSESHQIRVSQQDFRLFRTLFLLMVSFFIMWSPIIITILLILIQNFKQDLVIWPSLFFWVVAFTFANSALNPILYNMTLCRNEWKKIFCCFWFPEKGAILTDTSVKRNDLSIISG
# Method Notes: GPR120 pERK AlphaScreen SureFire assay (human GPR120 pERK assay)
# Applied Conditions: CHOA12 or CHO-K1 cells stably transfected with short form of human GPR120, 100% = 50 μM linolenic acid
Quantity Name: pEC50
Please treat pEC50 as minus the base-10 logarithm of the molar concentration.

These solved cases illustrate the format of a correct answer.
O=C(O)COCCc1ccc(N2CC(Oc3ccccc3)C2)cc1
5.36
O=C(O)CCCCc1ccc(C2CCCCC(Oc3cccc(Cl)c3)C2)cc1 (stereo not shown)
5.69
O=C(O)CCCCc1ccc(C2CCCCC(Oc3ccccc3)C2)cc1 (single isomer, unassigned) [Example 13]
5.99
O=C(O)CCCCc1ccc([C@@H]2CCC[C@H](Oc3ccccc3)C2)cc1 (single isomer, unassigned)
6.32
O=C(O)[C@@H]1C[C@@H]1COc1ccc(N2CCCC(Oc3ccccc3)C2)cc1 (single isomer, unassigned)
5.30

Entry O=C(O)[C@H]1C[C@@H]1COc1ccc(C2CCCC(Oc3ccccc3)C2)cc1 (mixture of isomers) — recorded pEC50 = 6.22

Entry `O=C(O)[C@@H]1C[C@H]1CCc1ccc(N2CCC[C@@H](c3ccccc3)C2)cc1` — recorded pEC50 = 5.20

Entry `O=C(O)[C@@H]1C[C@H]1CCc1ccc(N2CCC[C@H](Oc3ccc(F)cc3)C2)cc1` — recorded pEC50 = 5.81

Entry O=C(O)CCCCc1ccc(C2CCC(Oc3ccccc3)C2)cc1 (stereo not shown) — recorded pEC50 = 5.86

Entry Cc1ccc(O[C@H]2CCC[C@@H](c3ccc(CCOCC(=O)O)cc3)C2)cn1 (racemic) — recorded pEC50 = 5.79

Entry `O=C(O)CCCCc1ccc(N2CCC[C@H](Oc3ccccc3)C2)cc1` — recorded pEC50 = 6.30

====

# Target Of Assay: human GPR120 (Homo sapiens (Human))
# Method Notes: GPR120 pERK AlphaScreen SureFire assay (human GPR120 pERK assay)
# Applied Conditions: CHOA12 or CHO-K1 cells stably transfected with short form of human GPR120, 100% = 50 μM linolenic acid
# Method: GPR120 activity was monitored by measuring phosphorylation of ERK (pERK), since G protein receptors are known to activate the ERK signaling cascade either directly and/or through recruitment of arrestin that serves as a scaffold for downstream signaling events. […] The media was then dumped and cells lysed with 20 μL of 1× Lysis buffer from the AlphaScreen SureFire Phospho-ERK 1/2 Kit (Perkin Elmer Cat. #6760617M). […] After correcting for background, EC50 values were determined. […]
pEC50: −log10 of the molar value.
Label label 1 when pEC50 is at or above 6; anything below gets label 0.

O=C(O)[C@H]1C[C@@H]1CCc1ccc([C@@H]2CCCC(Oc3ccccc3)C2)cc1 (single isomer, unassigned) [Example 9]
label 1

INPUT: Assess whether reported pEC50 for O=C(O)[C@H]1C[C@@H]1CCc1ccc(N2CCC[C@@H](c3ccccc3)C2)cc1 [Example 53] sits at 6 or higher.
OUTPUT: label 0

INPUT: Assess whether reported pEC50 for O=C(O)COCCc1ccc([C@@H]2CCC[C@H](Oc3ccc(F)cc3)C2)cc1 (racemic) [Example 37] sits at 6 or higher.
OUTPUT: label 0

INPUT: Assess whether reported pEC50 for O=C(O)COCCc1ccc(C2CCCCC(Oc3ccccc3)C2)cc1 (stereo not shown) [Example 14] sits at 6 or higher.
OUTPUT: label 1

INPUT: Assess whether reported pEC50 for O=C(O)[C@H]1C[C@@H]1CCc1ccc([C@@H]2CCC[C@@H](Oc3ccccc3)C2)cc1 (racemic) [Example 40] sits at 6 or higher.
OUTPUT: label 0

INPUT: Assess whether reported pEC50 for O=C(O)COCCc1ccc(N2CCCC(c3ccccc3)C2)cc1 (stereo not shown) [Example 57] sits at 6 or higher.
OUTPUT: label 0

INPUT: Assess whether reported pEC50 for O=C(O)CCCCc1ccc(N2CC[C@@H](Oc3ccccc3)C2)cc1 [Example 61] sits at 6 or higher.
OUTPUT: label 0

INPUT: Assess whether reported pEC50 for O=C(O)[C@@H]1C[C@H]1CCc1ccc(N2CCC[C@H](c3ccccc3)C2)cc1 [Example 56] sits at 6 or higher.
OUTPUT: label 0

INPUT: Assess whether reported pEC50 for O=C(O)CCCCc1c(F)cc(N2CCC[C@H](Oc3ccccc3)C2)cc1F [Example 25] sits at 6 or higher.
OUTPUT: label 1

====

# Target Of Assay: human GPR120 (Homo sapiens (Human), UniProt Q5NUL3)
# Method Notes: GPR120 pERK AlphaScreen SureFire assay (human GPR120 pERK assay)
# Applied Conditions: CHOA12 or CHO-K1 cells stably transfected with short form of human GPR120, 100% = 50 μM linolenic acid
Quantity Name: pEC50
Please treat pEC50 as minus the base-10 logarithm of the molar concentration.

These solved cases illustrate the format of a correct answer.
O=C(O)COCCc1ccc(C2CCCCC(Oc3ccccc3)C2)cc1 (single isomer, unassigned) [Example 17]
6.57
O=C(O)COCCc1ccc([C@@H]2CCC[C@H](Oc3ccc(Cl)cc3)C2)cc1 (racemic)
6.14
O=C(O)[C@@H]1C[C@H]1CCc1ccc(N2CCC[C@H](Oc3ccccc3)C2)cc1
5.72
O=C(O)COCCCc1ccc(N2CCCC(Oc3ccccc3)C2)cc1 (centres unmarked)
5.38

Entry O=C(O)COCCc1ccc([C@@H]2CCC[C@H](Oc3ccccc3)C2)cc1 (single isomer, unassigned) [Example 4] — recorded pEC50 = 6.49

Entry `O=C(O)CCCCc1ccc(N2CCC[C@H](Oc3ccccc3)C2)cc1F` — recorded pEC50 = 6.24

Entry Cc1ccc(O[C@H]2CCC[C@@H](c3ccc(CCOCC(=O)O)cc3)C2)cc1F (racemic) — recorded pEC50 = 6.52

Entry `O=C(O)[C@@H]1C[C@H]1CCc1ccc(N2CCC[C@@H](Oc3ccccc3)C2)cc1` — recorded pEC50 = 6.39

====

# Target Of Assay: human GPR120 (Homo sapiens (Human))
# Method Notes: GPR120 pERK AlphaScreen SureFire assay (human GPR120 pERK assay)
# Applied Conditions: CHOA12 or CHO-K1 cells stably transfected with short form of human GPR120, 100% = 50 μM linolenic acid
Quantity Name: pEC50
Please treat pEC50 as minus the base-10 logarithm of the molar concentration.

These solved cases illustrate the format of a correct answer.
O=C(O)CCCCc1ccc(N2CCC(Oc3ccccc3)CC2)cc1 [Example 58]
5.39
O=C(O)COCCc1ccc([C@H]2CCC[C@@H](Oc3ccccc3)C2)cc1 (single isomer, unassigned) [Example 5]
5.99
O=C(O)[C@@H]1C[C@H]1CCc1ccc([C@@H]2CCC[C@@H](Oc3ccccc3)C2)cc1 (racemic) [Example 41]
5.71
Cc1ccc(O[C@H]2CCC[C@@H](c3ccc(CCOCC(=O)O)cc3)C2)cc1 (racemic) [Example 36]
6.51

Consider the record given below.
Entry O=C(O)[C@@H]1C[C@H]1CCc1ccc(N2CCCC(Oc3ccccc3)CC2)cc1 (some centres unmarked) [Example 62] — recorded pEC50 = 4.99

====

# Target Of Assay: human GPR120 (Homo sapiens (Human), UniProt Q5NUL3)
# Method Notes: GPR120 pERK AlphaScreen SureFire assay (human GPR120 pERK assay)
# Applied Conditions: CHOA12 or CHO-K1 cells stably transfected with short form of human GPR120, 100% = 50 μM linolenic acid
Quantity Name: EC50 (µM)
Answer in µM, number only, no unit symbol.

O=C(O)[C@H]1C[C@@H]1CCc1ccc(N2CCC[C@H](Oc3ccccc3)C2)cc1
1.31
O=C(O)CCCCc1ccc(N2CCC[C@H](Oc3ccc(F)cc3)C2)cc1
0.93
O=C(O)[C@H]1C[C@@H]1CCc1ccc([C@@H]2CCC[C@H](Oc3ccccc3)C2)cc1 (single isomer, unassigned)
0.92
O=C(O)[C@H]1C[C@@H]1CCc1ccc(N2CCC[C@H](c3ccccc3)C2)cc1
1.34
O=C(O)CCCCc1ccc([C@@H]2CCC[C@@H](Oc3ccccc3)C2)cc1 (single isomer, unassigned)
2.36
N#Cc1ccc(O[C@H]2CCC[C@@H](c3ccc(CCOCC(=O)O)cc3)C2)cc1 (racemic)
3.24

Entry O=C(O)COCCc1ccc(C2CCCCC(Oc3ccccc3)C2)cc1 (single isomer, unassigned) [Example 15] — recorded EC50 = 1.99

Entry O=C(O)CCCCc1ccc(C2CCCCC(Oc3ccccc3)C2)cc1 (single isomer, unassigned) [Example 12] — recorded EC50 = 0.31

Entry CC(C)OC1CCC(c2ccc(CCCCC(=O)O)cc2)C1 (stereo not shown) — recorded EC50 = 3.77

Entry O=C(O)COCCc1ccc(N2CCC(Oc3ccccc3)C2)cc1 (stereo not shown) — recorded EC50 = 5.27

Entry O=C(O)COCCc1ccc(C2CCC(Oc3ccccc3)C2)cc1 (stereo not shown) — recorded EC50 = 2.13

Entry O=C(O)COCCc1ccc([C@@H]2CCC[C@H](Oc3ccccc3)C2)cc1 (single isomer, unassigned) [Example 6] — recorded EC50 = 0.18

Entry O=C(O)[C@H]1C[C@@H]1CCc1ccc([C@H]2CCCC(Oc3ccccc3)C2)cc1 (single isomer, unassigned) — recorded EC50 = 1.45

Entry CC(C)O[C@H]1CCC[C@@H](c2ccc(CCCCC(=O)O)cc2)C1 (single isomer, unassigned) — recorded EC50 = 1.16

Entry O=C(O)CCCCc1ccc(C2CCCCC(Oc3ccc(Cl)cc3)C2)cc1 (stereo not shown) — recorded EC50 = 0.53

Entry O=C(O)COCCc1ccc(C2CCCCC(Oc3ccccc3)C2)cc1 (single isomer, unassigned) [Example 16] — recorded EC50 = 0.75

Entry `O=C(O)CCCCc1ccc(N2CC[C@H](Oc3ccccc3)C2)cc1` — recorded EC50 = 0.22

Entry `O=C(O)[C@H]1C[C@@H]1CCc1ccc(N2CCC[C@@H](Oc3ccccc3)C2)cc1` — recorded EC50 = 3.22

Entry O=C(O)[C@@H]1C[C@H]1CCc1ccc([C@@H]2CCC[C@H](Oc3ccccc3)C2)cc1 (single isomer, unassigned) — recorded EC50 = 0.53

Entry O=C(O)CCCCc1ccc(C2CCCCC(Oc3ccccc3Cl)C2)cc1 (stereo not shown) — recorded EC50 = 3.12
